System: HCH cells
Test: Proline uptake assay
Type: cell-based, human
Conditions: astragalosides 0.1 μM, 24 h, Ctrl 1.00
Experimental: The proline uptake assay was carried out as described below, generally in accordance with the method disclosed in Biochim Biophys Acta. 1104:283-292, 1992, the contents of which are incorporated by reference. […] Intracellular proline uptaken by the cells was determined by transferring 10 μL of the cell lysate to filter-bottomed UniFilter plates (Perkim-Elmer) and counting. The samples were measured for their protein concentrations using the BCA protein assay kit as described above. […]
Recorded proline uptake, Relative fold for the following compounds
The reply should be a number in fold, with the unit left off.

These solved cases illustrate the format of a correct answer.
| compound | proline uptake, Relative fold, fold |
| --- | --- |
| CC(C)(O)C1CC[C@](C)(C2[C@@H](O)C[C@@]3(C)C4C[C@H](OC5OC(CO)C(O)C(O)C5O)C5C(C)(C)[C@@H](O)CCC56CC46CC[C@]23C)O1 (stereo partly shown) | 2.80 |
| CC(C)(O)[C@@H]1CC[C@](C)([C@H]2[C@@H](O)C[C@@]3(C)[C@@H]4C[C@H](O[C@@H]5O[C@H](CO)[C@@H](O)[C@H](O)[C@H]5O)[C@H]5C(C)(C)[C@@H](O[C@@H]6OC[C@@H](O)[C@H](O)[C@H]6O[C@@H]6O[C@H](CO)[C@@H](O)[C@H](O)[C@H]6O)CC[C@@]56C[C@@]46CC[C@]23C)O1 [AS6, Astragaloside VI] | 1.69 |
| CC(=O)O[C@@H]1[C@@H](O)[C@H](O[C@H]2CC[C@]34C[C@]35CC[C@]3(C)[C@@H]([C@@]6(C)CC[C@@H](C(C)(C)O)O6)[C@@H](O)C[C@@]3(C)[C@@H]5C[C@H](O[C@@H]3O[C@H](CO)[C@@H](O)[C@H](O)[C@H]3O)[C@H]4C2(C)C)OC[C@H]1O [IsoAS2, Isoastragaloside II] | 1.61 |

Request: Which measured proline uptake, Relative fold value corresponds to CC(=O)O[C@H]1[C@H](O[C@H]2CC[C@]34C[C@]35CC[C@]3(C)[C@@H]([C@@]6(C)CC[C@@H](C(C)(C)O)O6)[C@@H](O)C[C@@]3(C)[C@@H]5C[C@H](O[C@@H]3O[C@H](CO)[C@@H](O)[C@H](O)[C@H]3O)[C@H]4C2(C)C)OC[C@@H](OC(C)=O)[C@@H]1O [IsoAS1, Isoastragaloside I] ?
Response: 2.82

The reported measurements were obtained from patent US8168596B2.
